// data source = paper PMC11062899

Below, each of the molecules is paired with its reported half-life value.
- run_description: Metabolic stability in rat liver microsomes (RLMs)
- condition: rat, microsomes, Half Life (min) R1, RLM metabolic stability; replicate R1; 0-60 min

Below, each entry is followed by its recorded half-life result.
>>> print(df.to_string())
                                   molecule  measured_property  experimental_result
0  O=C1NCCSCc2cccc(n2)CSC[C@H](NC(=O)c2ccc(Cl)s2)C(=O)N[C@@H](CO)C(=O)NCc2ccc1cc2 [compound 25]          half-life               14 min
1  CN1CCC(=O)NCCSCCS(=O)(=O)CCSC[C@H](NC(=O)c2ccc(Cl)s2)C(=O)N[C@@H](Cc2ccccc2)C1=O [compound 14]          half-life             17.7 min
2  O=C1CCSCc2cccc(n2)CSCCNC(=O)C2CN(C(=O)c3ccc(Cl)s3)CCN2C(=O)[C@H](CO)N1 (stereo partly drawn) [compound 24]          half-life             18.3 min
3  C[C@@H]1NC(=O)[C@@H](NC(=O)c2ccc(Cl)s2)CSCc2cccc(n2)CSCCNC(=O)[C@H]2CCCN(C2)C1=O [compound 30]          half-life             17.3 min
4  C[C@@H]1NC(=O)[C@@H](NC(=O)c2ccc(Cl)s2)CSCc2cccc(n2)CSCCNC(=O)c2ccc(cc2)CNC1=O [compound 26]          half-life             18.9 min

Turning now to a further record.
Name the recorded half-life for NC(=O)NCCC[C@@H]1NC(=O)[C@@H](NC(=O)c2ccc(Cl)s2)CNC(=O)CCSCc2cccc(n2)CSCCNC1=O [compound 20] .
46.9 min

---

- target_of_assay: human α-thrombin (Homo sapiens)
- run_description: Sub-library screen for active and permeable cyclic peptides (PAMPA plus thrombin inhibition)
- Type: biochemical
- condition: PAMPA acceptor well after 14 h, 5 μM donor; crude; slopes normalized to DMSO
measured_property: Residual thrombin activity: Top sample
Just the number, please.

Below, each entry is followed by its recorded Residual thrombin activity: Top sample result.
                              sample_smiles  experimental_result
0  COc1ccc(C[C@@H]2NC(=O)[C@@H](NC(=O)c3ccc(Cl)s3)CCSCc3ccc(cc3)CSCCNC(=O)C[C@H]3CCCN3C2=O)cc1                100.8
1  N#Cc1ccc(C[C@@H]2NC(=O)[C@@H](NC(=O)c3ccc(Cl)s3)CSCc3ccc(cc3)CSCCNC(=O)C[C@H]3CCCN3C2=O)cc1                 94.1
2  COc1ccc(C[C@@H]2NC(=O)[C@@H](NC(=O)c3ccc(Cl)s3)CCCSC/C=C/CSCCNC(=O)C[C@H]3CCCN3C2=O)cc1                105.1
3  O=C1C[C@H]2CCCN2C(=O)[C@H](Cc2ccc(Cl)cc2)NC(=O)[C@@H](NC(=O)c2ccc(Cl)s2)CCSCCS(=O)(=O)CCSCCN1                 99.3
4  Cc1cccc(C[C@@H]2NC(=O)[C@@H](NC(=O)c3ccc(Cl)s3)CCCSCC(=O)CSCCNC(=O)C[C@H]3CCCN3C2=O)c1                 84.8

Turning now to a further record.
Which measured Residual thrombin activity: Top sample belongs to O=C1C[C@H]2CCCN2C(=O)[C@H](Cc2ccccc2)NC(=O)[C@@H](NC(=O)c2ccc(Cl)s2)CCSCCS(=O)(=O)CCSCCN1 , tested on human α-thrombin (Homo sapiens)?
89.4

---

- run_description: in vivo
- condition: male, Wistar Han, rat, iv, 1 mg/kg, Plasma Concentration (uM)
measured_property: level at time molar at 0.08 h

Name the recorded level at time molar at 0.08 h for O=C1C[C@H]2CCCN2C(=O)[C@H](Cc2ccccc2)NC(=O)[C@@H](NC(=O)c2ccc(Cl)s2)CCC=CCCCCN1 [peptide 43] .
3.19 µM

---

- target_of_assay: porcine pepsin (Sus scrofa, UniProt P00791)
- Construct: 0.32 g of porcine pepsin (Sigma-Aldrich, P7125) was dissolved under gentle agitation; purchased Sigma-Aldrich P7125
- Sequence (P00791 60-385): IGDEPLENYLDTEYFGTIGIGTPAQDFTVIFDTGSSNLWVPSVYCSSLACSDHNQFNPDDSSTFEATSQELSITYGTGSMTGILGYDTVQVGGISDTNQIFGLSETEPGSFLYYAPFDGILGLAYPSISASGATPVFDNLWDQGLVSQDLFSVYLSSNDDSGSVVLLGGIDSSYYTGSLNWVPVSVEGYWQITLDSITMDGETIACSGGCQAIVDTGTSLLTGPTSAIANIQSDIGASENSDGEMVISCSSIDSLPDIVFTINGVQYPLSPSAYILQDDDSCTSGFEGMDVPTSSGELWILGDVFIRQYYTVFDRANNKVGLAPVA
- run_description: Peptide stability in simulated gastric fluid (SGF)
- Format: in vitro ADME
- condition: pig, simulated gi fluid; 8 h, 37 °C, pH 1.2; read-out: Proteolytic stability: SGF (8 h) % remaining
Below, each of the compounds is paired with its reported remaining at 8 h value.
Answer in %, number only, no unit symbol.

Below, each entry is followed by its recorded remaining at 8 h result.
>>> df
                                   compound  measured_property  experimental_result
0  CN1CCC(=O)NCCSCCS(=O)(=O)CCSC[C@H](NC(=O)c2ccc(Cl)s2)C(=O)N[C@@H](Cc2ccccc2)C1=O   remaining at 8 h                   95
1  O=C1C[C@H]2CCCN2C(=O)[C@H](Cc2ccccc2)NC(=O)[C@@H](NC(=O)c2ccc(Cl)cc2)CCC=CCCCCN1 (mixture of isomers) [peptide 46]   remaining at 8 h                   96

Name the recorded remaining at 8 h for O=C1C[C@H]2CCCN2C(=O)[C@H](Cc2ccccc2)NC(=O)[C@@H](NC(=O)c2ccc(Cl)s2)CCC=CCCCCN1 [peptide 43] .
101

---

- run_description: Metabolic stability in rat liver microsomes (RLMs)
- condition: rat, microsomes, CL (ul/min/mg protein) R1, RLM CL; replicate R1
measured_property: microsomal CLint (µL/min/mg)
Answer in µL/min/mg, number only, no unit symbol.

In [3]: df
Out[3]:
                                   molecule  measured_property  experimental_result
0  O=C1CC2CCN(CC2)C(=O)[C@H](Cc2ccccc2)NC(=O)[C@@H](NC(=O)c2ccc(Cl)s2)CSCCS(=O)(=O)CCSCCN1   microsomal CLint                  187
1  O=C1CCSC/C=C/CSCCNC(=O)[C@H](CNC(=O)c2ccc(Cl)s2)NC(=O)[C@H](Cc2ccccn2)N1   microsomal CLint                  266
2  O=C1CCSCc2ccc(cc2)CSCCNC(=O)[C@H](CNC(=O)c2ccc(Cl)s2)NC(=O)[C@H](Cc2ccccn2)N1   microsomal CLint                  102

Turning now to a further record.
Name the recorded microsomal CLint for O=C1CCSCc2cccc(n2)CSCCNC(=O)C2CN(C(=O)c3ccc(Cl)s3)CCN2C(=O)[C@H](CO)N1 (stereo partly shown) .
75.7

---

- run_description: Metabolic stability in rat liver microsomes (RLMs)
- condition: rat, microsomes, Metabolic stability: RLM CL (ul/min/mg), RLMs; mean and SD, three measurements
Below, each of the molecules is paired with its reported microsomal CLint value.
Answer in µL/min/mg, number only, no unit symbol.

Name the recorded microsomal CLint for O=C1CCSCc2cccc(n2)CSCCNC(=O)[C@H](CO)NC(=O)[C@@H](NC(=O)c2ccc(Cl)s2)CN1 .
119

Name the recorded microsomal CLint for NC(=O)NCCC[C@@H]1NC(=O)[C@@H](NC(=O)c2ccc(Cl)s2)CNC(=O)CCSCc2cccc(n2)CSCCNC1=O .
27

Name the recorded microsomal CLint for COc1ccc(CC(=O)N[C@H]2Cc3ccc(cc3)CNC(=O)c3cccc(c3)CNC(=O)CCSCc3ccc(cc3)CSCCNC2=O)cc1OC [peptide 3] .
84

Name the recorded microsomal CLint for CN1CCC(=O)NCCSCC(=O)CSC[C@H](NC(=O)c2cccc(C(F)(F)F)c2)C(=O)N2CCC[C@@H](C2)C1=O .
40

Name the recorded microsomal CLint for O=C(N[C@H]1CSCCS(=O)(=O)CCSCCNC(=O)C2(CC2)CNC(=O)[C@H](Cc2ccccc2)NC1=O)c1ccc(Cl)s1 .
58

Name the recorded microsomal CLint for NC(=O)NCCC[C@@H]1NC(=O)C2CN(CCN2C(=O)C2CCCN2S(=O)(=O)c2ccc(F)cc2)C(=O)CCSC/C=C/CSCCNC1=O (stereo partly shown) [peptide 4] .
41

---

- run_description: Metabolic stability in rat liver microsomes (RLMs)
- condition: rat, microsomes, RLM CL Mean, rat liver microsomes, mean of R1-R3
Classify: Criterion met when microsomal CLint is strictly less than 50 µL/min/mg; Criterion not met when microsomal CLint is not.

compound	class_label
NC(=O)NCCC[C@@H]1NC(=O)C2CN(CCN2C(=O)C2CCCN2S(=O)(=O)c2ccc(F)cc2)C(=O)CCSC/C=C/CSCCNC1=O (stereo partly shown) [peptide 4]	Criterion met
O=C1CSCCNC(=O)c2ccc(cc2)CNC(=O)[C@@H](NC(=O)C2CCS(=O)(=O)CC2)CCNC(=O)CCSC1 [compound 6]	Criterion met
Cn1nccc1C(=O)N1CCC2(CC1)NC(=O)[C@H](CC1CCCCC1)NC(=O)CCSCc1cccc(n1)CSCCNC2=O [compound 9]	Criterion not met
O=C(N[C@H]1CSC/C=C\CSCCNC(=O)C2(CC2)CNC(=O)[C@H](CO)NC1=O)c1cccnc1 [peptide 2]	Criterion met
O=C1CC2CCN(CC2)C(=O)[C@@H](NC(=O)c2cc(F)cc(F)c2)CSCc2ccc(cc2)CSCCNC(=O)[C@H](Cc2ccccc2)N1 [peptide 1]	Criterion not met
CN1CCC(=O)NCCSCC(=O)CSC[C@H](NC(=O)c2cccc(C(F)(F)F)c2)C(=O)N2CCC[C@@H](C2)C1=O [compound 8]	Criterion met
O=C(Cc1c[nH]c2ccccc12)N[C@H]1CSCCS(=O)(=O)CCSCCNC(=O)C2(CCCC2)NC(=O)[C@@H]2CCCN2C1=O [compound 5]	Criterion met
COc1ccc(CC(=O)N[C@H]2Cc3ccc(cc3)CNC(=O)c3cccc(c3)CNC(=O)CCSCc3ccc(cc3)CSCCNC2=O)cc1OC [peptide 3]	Criterion not met

hey, is microsomal CLint for O=C1C[C@@H]2CCCN2C(=O)[C@@H](NC(=O)c2cccc(Cl)c2)CSCc2cccc(n2)CSCCNC(=O)[C@H](Cc2c[nH]c3ccccc23)N1 [compound 7] lower than 50 µL/min/mg or not?
Criterion met

hey, is microsomal CLint for CC(C)[C@@H]1NC(=O)CCSCCS(=O)(=O)CCSCCNC(=O)[C@H](CNC(=O)c2ccco2)NC1=O [compound 10] lower than 50 µL/min/mg or not?
Criterion met
